// provenance: patent US20220281976A1

Exercise: state measured Percent CD33 Surface Expression, DC % CD33 for each of the binders provided.
Target: human CD33 (human, UniProt P20138 18-364)
Sequence (P20138 18-364): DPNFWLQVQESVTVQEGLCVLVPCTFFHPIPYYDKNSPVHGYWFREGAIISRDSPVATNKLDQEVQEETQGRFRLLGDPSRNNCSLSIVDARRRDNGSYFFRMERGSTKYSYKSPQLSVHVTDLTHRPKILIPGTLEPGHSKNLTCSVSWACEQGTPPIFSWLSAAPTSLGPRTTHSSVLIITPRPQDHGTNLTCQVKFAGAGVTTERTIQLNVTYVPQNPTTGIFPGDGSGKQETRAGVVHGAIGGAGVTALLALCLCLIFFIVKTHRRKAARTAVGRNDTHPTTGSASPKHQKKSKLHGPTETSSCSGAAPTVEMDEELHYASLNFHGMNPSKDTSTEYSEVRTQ
Experiment: cell-based or functional assay
Report the figure in % without appending any unit label.

Q: Percent CD33 Surface Expression, DC % CD33 lookup needed for C-63 (antibody, V domains shown, human IgG1) VH: QVQLVQSGAEVKKPGSSVKVSCKASGGTFSSYAISWVRQAPGQGLEWMGSIIPIFGTANYAQKFQGRVTITADESTSTAYMELSSLRSEDTAVYYCARDLGGQYYGSHHYWGQGTLVTVSS VL: EIVLTQSPATLSVSPGERATLSCRASQSVGSNLAWYQQKPGQAPRLLIYGASTRATGIPARFSGSGSGTEFTLTISSLQSEDFAVYYCQQYNAWPLTFGGGTKVEIK , thanks.
A: 56.8

Q: Please do the same for C-27 (antibody, V domains shown, human IgG1) VH: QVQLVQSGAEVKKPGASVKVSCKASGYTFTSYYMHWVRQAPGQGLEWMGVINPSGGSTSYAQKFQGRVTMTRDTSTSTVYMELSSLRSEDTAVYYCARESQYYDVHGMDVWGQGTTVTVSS VL: DIQMTQSPSSLSASVGDRVTITCRASQSISSYLNWYQQKPGKAPKLLIYAASSLQSGVPSRFSGSGSGTDFTLTISSLQPEDFATYYCQQHYDIPLTFGGGTKVEIK as well.
A: 37.8

Q: Please do the same for C-11 (antibody, V domains shown, human IgG1) VH: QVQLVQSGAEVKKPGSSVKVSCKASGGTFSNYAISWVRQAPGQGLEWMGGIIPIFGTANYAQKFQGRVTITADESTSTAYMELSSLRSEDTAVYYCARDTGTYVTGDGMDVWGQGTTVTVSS VL: EIVMTQSPATLSVSPGERATLSCRASQSVSSNLAWYQQKPGQAPRLLIYSASTRATGIPARFSGSGSGTEFTLTISSLQSEDFAVYYCQQYIVLPITFGGGTKVEIK as well.
A: 23.3
